Assign Kd to each entry below.
Tested on: PIK3CB;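 also: kd values determined as follow-up on hits from a single-replicate KINOMEscan panel screen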
One number for each entry, in nM.

| COMPOUND | OBSERVED VALUE |
| --- | --- |
| CS(=O)(=O)c1ccc(-c2c(-c3ncn[nH]3)sc(N3CCOCC3)c2C#N)cc1 | 77 |

Moving on to the next compound.
Return reported Kd; argument: Cc1c(Cn2ccn3c(=O)cc(N4CCOCC4)nc23)cccc1C(F)(F)F [GSK2289044]
1.5

###

System: PRKCD;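 also: KINOMEscan kinase panel screen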
REPORTED CONDITIONS: concentration: 1 μM, replicates: in singlicate; n = 1
Assign %Inh to each entry below.
Give bare numbers, in %.

Examples with answers:
| COMPOUND | TESTED TARGET | QUANTITY | OBSERVED VALUE |
| --- | --- | --- | --- |
| COc1cc2ncn(-c3cc(OCC4CCCO4)c(C(N)=O)s3)c2cc1OC (stereo not drawn) | PRKCD | %Inh | 0 |
| COc1ccc(C2=C(Nc3cccc(C(=O)O)c3)C(=O)NC2=O)cc1 | PRKCD | %Inh | 5 |
| COc1ccc(Nc2nccc(-c3cccc(NC(=O)c4cc5cc(F)ccc5[nH]4)c3)n2)cc1 | PRKCD | %Inh | 42 |
| Cc1nnc(-c2ccc3occ(-c4ccc(S(C)=O)cc4)c3c2)[nH]1 (stereo not drawn) | PRKCD | %Inh | 13 |
| Cc1ccc(NC(=O)Nc2cc(C(C)(C)C)nn2-c2ccccc2)cc1 | PRKCD | %Inh | 0 |

Fill in %Inh for each of the 4 compounds listed.
1. Cn1ccc2ncnc(Oc3cccc(C(=O)Nc4ccccc4)c3)c21
2. COC(=O)c1c(-c2ccccc2)c2cc(C(=O)O)ccc2c(=O)n1Cc1ccccc1
3. COc1ccccc1CNC(=O)c1cc(C(=O)c2ccccc2C)c[nH]1
4. O=C(O)COc1ncnc2cc(-c3ccc4[nH]ncc4c3)sc12

[2, 0, 0, 19]
